Values were extracted from the Human Domainome abundance scans (Beltran et al. 2025).

B1: WW domain-containing transcription regulator protein 1, residues 116 to 162; numbered along this chain, Q9GZV5 (parent)
chain: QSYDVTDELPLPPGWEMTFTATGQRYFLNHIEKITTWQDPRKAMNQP

Variants of: B1
Experiment: abundance fitness (aPCA) (normalised: wild type 0, dead -1); higher = more abundant; growth selection in yeast, the domain comes from the species named
Settings: Homo sapiens
Record form. Attribute: abundance fitness. Fill in for each entry.
Numbers only.

variant_id=A21N result_value=0.019
variant_id=P40A result_value=-0.767
variant_id=I34G result_value=-0.634
variant_id=L9W result_value=-0.087
variant_id=I34P result_value=-0.813
variant_id=L28P result_value=-0.697

Dear colleague, could you send me abundance fitness for each of the items below? Thanks.
1. G23C
2. R41H

1: -0.79; 2: -0.719
